Entries annotated with measured pKd
Target: T1, DLG3_2, Q92796
T1 sequence (Q92796 221-321, limits assumed, looked up): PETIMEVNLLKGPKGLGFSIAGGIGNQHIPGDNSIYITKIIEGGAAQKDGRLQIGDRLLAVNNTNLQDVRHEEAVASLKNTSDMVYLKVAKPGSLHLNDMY
Assay: holdup assay
Parameters: key: below the threshold = too weak to quantify, mostly under pKd 3.1 to 4
Details: plain residues with an end cap or a label only (N-terminal biotin on a linker: ado-ado)
observable: pKd

> print(dat)
                         binder  measured
1    EVNETDDTKM [KCNJ1, P48048]      3.63
2    SSALYGESDL [ACTN2, P35609]      4.18
3   TLPRKRMSSI [GPRC6A, Q5T6X5]      4.23
4    VDSTVKVWTC [TRAF7, Q6Q0C0]      4.18
5    EVEEFPETSV [TRPV3, Q8NET8]      4.22
6   LRSPRTPSEV [OR10G3, Q8NGC4]      3.65
7  SAKVRTVTSV [RASL11B, Q9BPW5]      4.78
8    YYKRPVQEWV [MMP24, Q9Y5R2]      4.23
